Measured pKd, listed per entry.
molecular target: T1, CC2-LZ domain of NEMO (mouse CC2-LZ) (mouse, UniProt O88522 251-337, limits assumed); assay: fluorescence polarization, labelled peptide fixed at 10 µM, CC2-LZ titrated
T1 construct: domain: CC2-LZ; The methods say that the mouse CC2-LZ was used in the fluorescence anisotropy assay; also called NOA; UBAN
T1 sequence (O88522 251-337 limits assumed): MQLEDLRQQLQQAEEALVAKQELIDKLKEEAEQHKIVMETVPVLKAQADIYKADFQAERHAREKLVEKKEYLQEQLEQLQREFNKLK
pKd: −log10 of the molar value. Bridges are numbered along the chain shown (N, C = ends). Where no end group is shown, it is not given here. [ ]: non-standard residue; d: D form. R8 = C=CCCCCCC[C@@](C)(N)C(=O)O; S5 = C=CCCC[C@](C)(N)C(=O)O; Aib = CC(C)(N)C(=O)O
readout_label: pKd

# binder, recorded_measurement
rows = [
    ("CLK[Aib]Q[Aib]DIYK[Aib]RFQ[Aib]ERH[Aib]REK (also: extra N-terminal Cys carries BODIPY or FITC label (not settled)) [UBI-AIB]", "< 2.00"),
    ("Ac-CELAQLQAELD[R8]VQAVVQ[S5]DKQELRKL (staple 12-19; not fully specified (C-terminus); also: extra N-terminal Cys labelled with BODIPY or FITC (label not settled), staple isomer A (cis), 26 aa control peptide; also called Co-SAHN I307-A314 (A); I307 R8-A314 S5) [Co-UBI-SAHN I307-A314, conformer A]", "< 2.00"),
    ("Ac-CELAQLQAELD[R8]VQAVVQ[S5]DKQELRKL (staple 12-19; not fully specified (C-terminus); also: extra N-terminal Cys labelled with BODIPY or FITC (label not settled), staple isomer B (trans), 26 aa control peptide; also called Co-SAHN I307-A314 (B)) [Co-UBI-SAHN I307-A314, conformer B]", "< 2.00"),
]

The reported numbers originate from patent US20220025002A1.
